So I've got a bunch of molecules here, and I need their viability at 10 µM values.
System: CAKI-1
Assay: Cytotoxicity against human CAKI-1 cells assessed as cell viability at 10 uM incubated for 48 hrs by sulforhodamine B assay relative to control
Assay type: functional
Conditions: read-out: Activity
I'd appreciate it if you included the unit after the number.

Data request: Given the entry O=S(=O)(NCCNc1nccc(-c2c(-c3cccc(F)c3)nc3sccn23)n1)c1ccccc1 , report its measured viability at 10 µM.
Data returned: 39.1%

Data request: # query: viability at 10 µM of entry O=S(=O)(NCCNc1nccc(-c2c(-c3cccc(F)c3)nc3sccn23)n1)c1ccc(C(F)(F)F)cc1
Data returned: 70.6%

Data request: Name the recorded viability at 10 µM for O=S(=O)(NCCNc1nccc(-c2c(-c3cccc(F)c3)nc3sccn23)n1)c1ccc(Cl)cc1 .
Data returned: 41.1%

Data request: What does the data say about its viability at 10 µM? Entry: O=S(=O)(NCCCNc1nccc(-c2c(-c3cccc(F)c3)nc3sccn23)n1)c1ccccc1
Data returned: 56.4%

Data request: Look at this molecule and give its reported viability at 10 µM. O=S(=O)(NCCCNc1nccc(-c2c(-c3cccc(F)c3)nc3sccn23)n1)c1cccc(F)c1
Data returned: 41.5%

Data request: # input molecule: O=C(NCCNc1nccc(-c2c(-c3cccc(F)c3)nc3sccn23)n1)c1ccccc1 ; wanted: its viability at 10 µM
Data returned: 36.4%

Ref: ChEMBL document CHEMBL4665642
